System: E. faecalis ATCC 29212
protocol_description: MIC, NCCLS broth microdilution assay
Type: cell-based, Enterococcus faecalis
condition_summary: C = E. faecalis ATCC 29212

>  <entry_smiles>
C[C@@H]1CN(CCNC(=O)c2cc(NC(=O)c3cc(NC(=O)c4cc(NC(=O)c5ccc(F)cc5F)c[nH]4)cn3C)cn2C)C[C@H](C)O1

>  <Minimum Inhibitory Concentration (MIC)>
+++ (+++ = MIC ≦ 4)

$$$$
>  <entry_smiles>
Cn1cc(NC(=O)c2cc(NC(=O)c3cc(NC(=O)c4ccc(Cl)cc4NCCN4CCCCC4)cn3C)cn2C)cc1C(=O)NCCN1CCCCC1

>  <Minimum Inhibitory Concentration (MIC)>
+++ (+++ = MIC ≦ 4)

$$$$
>  <entry_smiles>
Cn1cc(NC(=O)c2cc(NC(=O)c3cc(NC(=O)c4ccc(F)cc4F)cn3C)cn2C)cc1C(=O)NCCN1CCOCC1

>  <Minimum Inhibitory Concentration (MIC)>
+++ (+++ = MIC ≦ 4)

$$$$
>  <entry_smiles>
Cn1cc(NC(=O)c2cc(NC(=O)c3cc(NC(=O)c4ccc(Cl)cc4NCCCNC4CCCCC4)cn3C)cn2C)cc1C(N)=O

>  <Minimum Inhibitory Concentration (MIC)>
>32 µg/mL

$$$$
>  <entry_smiles>
Cc1cc(NC(=O)c2cc(NC(=O)c3cc(NC(=O)c4ccc(Cl)cc4F)c[nH]3)cn2CCC[N+](C)(C)C)sn1

>  <Minimum Inhibitory Concentration (MIC)>
+++ (+++ = MIC ≦ 4)

$$$$
>  <entry_smiles>
Cn1cc(NC(=O)c2cc(NC(=O)c3cc(NC(=O)c4ccc(F)cc4F)cn3C)cn2C)cc1C(=O)NCCN

>  <Minimum Inhibitory Concentration (MIC)>
++ (++ = 4 < MIC < 12)

$$$$
>  <entry_smiles>
Cc1cc(NC(=O)c2cc(NC(=O)c3cc(NC(=O)c4ccc(Cl)cc4F)cn3C)cn2CCCN(C)C)sn1

>  <Minimum Inhibitory Concentration (MIC)>
+++ (+++ = MIC ≦ 4)

$$$$
>  <entry_smiles>
Cn1cc(NC(=O)c2cc(NC(=O)c3cc(NC(=O)c4ccc(Cl)cc4)cn3C)cn2C)cc1C(=O)NCCN1CCOCC1

>  <Minimum Inhibitory Concentration (MIC)>
+++ (+++ = MIC ≦ 4)

$$$$
>  <entry_smiles>
Cc1cc(NC(=O)c2cc(NC(=O)c3cc(NC(=O)c4ccc(Cl)cc4F)cn3CCCN(C)C)c[nH]2)sn1

>  <Minimum Inhibitory Concentration (MIC)>
+++ (+++ = MIC ≦ 4)

$$$$
>  <entry_smiles>
Cn1cc(NC(=O)c2cc(NC(=O)c3cc(NC(=O)c4ccc(F)cc4F)cn3C)cn2C)cc1C(=O)NCCN1CCCCC1

>  <Minimum Inhibitory Concentration (MIC)>
+++ (+++ = MIC ≦ 4)

$$$$
>  <entry_smiles>
Cn1cc(NC(=O)c2cc(NC(=O)c3cc(NC(=O)c4cccc(F)c4)cn3C)cn2C)cc1C(=O)NCCN1CCOCC1

>  <Minimum Inhibitory Concentration (MIC)>
+ (+ = 12 ≦ MIC ≦ 32)

$$$$
>  <entry_smiles>
Cn1cc(NC(=O)c2cc(NC(=O)c3ccc(Cl)cc3F)c[nH]2)cc1C(=O)NCCN1CCSCC1

>  <Minimum Inhibitory Concentration (MIC)>
+++ (+++ = MIC ≦ 4)

$$$$
>  <entry_smiles>
Cn1cc(NC(=O)c2cc(NC(=O)c3cc(NC(=O)c4ccc(F)cc4F)cn3C)cn2C)cc1C(=O)NCCN1CCC(F)(F)CC1

>  <Minimum Inhibitory Concentration (MIC)>
+++ (+++ = MIC ≦ 4)

$$$$
>  <entry_smiles>
Cn1cc(NC(=O)c2cc(NC(=O)c3ccc(Cl)cc3F)c[nH]2)cc1C(=O)Nc1c[nH]c(C(=O)NCCN2CCOCC2)c1

>  <Minimum Inhibitory Concentration (MIC)>
+++ (+++ = MIC ≦ 4)

$$$$
>  <entry_smiles>
Cn1cc(NC(=O)c2cc(NC(=O)c3cc(NC(=O)c4ccc(F)cc4F)cn3C)cn2C)cc1C(=O)NCCN1CCC(O)CC1

>  <Minimum Inhibitory Concentration (MIC)>
+++ (+++ = MIC ≦ 4)

$$$$
>  <entry_smiles>
Cn1cc(NC(=O)c2cc(NC(=O)c3cc(NC(=O)c4ccc(F)cc4F)cn3C)cn2C)cc1C(=O)NCCCN1CCOCC1

>  <Minimum Inhibitory Concentration (MIC)>
++ (++ = 4 < MIC < 12)

$$$$
>  <entry_smiles>
Cn1cc(NC(=O)c2cc(NC(=O)c3cc(NC(=O)c4ccc(OC(F)F)cc4)cn3C)cn2C)cc1C(=O)NCCN1CCCC1

>  <Minimum Inhibitory Concentration (MIC)>
+++ (+++ = MIC ≦ 4)

$$$$
>  <entry_smiles>
CN(C)CCCn1cc(NC(=O)c2cc(NC(=O)c3ccc(F)cc3F)cn2C)cc1C(=O)Nc1cc(C(=O)NCCN2CCOCC2)n(C)c1

>  <Minimum Inhibitory Concentration (MIC)>
+++ (+++ = MIC ≦ 4)

$$$$
>  <entry_smiles>
CN(C)CC(C)(C)CNC(=O)c1cc(NC(=O)c2cc(NC(=O)c3cc(NC(=O)c4ccc(Cl)cc4F)c[nH]3)cn2C)cn1C

>  <Minimum Inhibitory Concentration (MIC)>
+++ (+++ = MIC ≦ 4)

$$$$
>  <entry_smiles>
Cn1cc(NC(=O)c2cc(NC(=O)c3cc(NC(=O)c4ccc(F)cc4Cl)cn3C)cn2C)cc1C(=O)NCCN1CCOCC1

>  <Minimum Inhibitory Concentration (MIC)>
++ (++ = 4 < MIC < 12)

$$$$
>  <entry_smiles>
Cn1cc(NC(=O)c2ccc(F)cc2F)cc1C(=O)Nc1cc(C(=O)Nc2cc(C(=O)OCCN3CCCCC3)n(C)c2)n(C)c1

>  <Minimum Inhibitory Concentration (MIC)>
+++ (+++ = MIC ≦ 4)

$$$$
>  <entry_smiles>
Cc1cc(NC(=O)c2cc(NC(=O)c3cc(NC(=O)c4ccc(Cl)cc4F)c[nH]3)cn2CCCN(C)C)sn1

>  <Minimum Inhibitory Concentration (MIC)>
+++ (+++ = MIC ≦ 4)

$$$$
>  <entry_smiles>
Cn1cc(NC(=O)c2cc(NC(=O)c3cc(NC(=O)c4ccc(F)cc4F)cn3CCCO)cn2C)cc1C(=O)NCCN1CCOCC1

>  <Minimum Inhibitory Concentration (MIC)>
+ (+ = 12 ≦ MIC ≦ 32)

$$$$
>  <entry_smiles>
Cn1cc(NC(=O)c2cc(NC(=O)c3cc(NC(=O)c4ccc(F)cc4F)c[nH]3)cn2C)cc1C(=O)NCCCN1CCC(O)CC1

>  <Minimum Inhibitory Concentration (MIC)>
+ (+ = 12 ≦ MIC ≦ 32)

$$$$
>  <entry_smiles>
COCn1cc(NC(=O)c2ccc(Cl)cc2F)cc1C(=O)Nc1cc(C(=O)Nc2cc(C(=O)NCCN3CCOCC3)n(C)c2)n(C)c1

>  <Minimum Inhibitory Concentration (MIC)>
+++ (+++ = MIC ≦ 4)

$$$$
>  <entry_smiles>
Cn1cc(NC(=O)c2cc(NC(=O)c3ccccc3F)cn2C)cc1C(=O)NCCN1CCSCC1

>  <Minimum Inhibitory Concentration (MIC)>
+++ (+++ = MIC ≦ 4)

$$$$
